Tested on: NCI-H322M lung
assay_comment: NCI-60 one-dose screen, 48 h (100 = growth as untreated, 0 = no growth, -100 = all killed)
condition: 10 µM unless noted
This is part of a sample that, as a whole, favours compounds with a hit. Of some 83,000 tested, about 20% had one in any assay. The source made the active and inactive calls. Rule for the calls: active = growth percent below 10; inactive = the rest.
Listed next: entries and their corresponding growth.
reported_endpoint: growth

O=C1c2cc3c(cc2-c2c1c1cc(Cl)c(Cl)cc1c(=O)n2CCCn1ccnc1)OCO3; 22.9% (inactive)
C=C1CC[C@@H]2[C@](C)(COC(C)=O)[C@H](OC(C)=O)CC[C@@]2(C)[C@@H]1CC(Nc1ccc(S(=O)(=O)Nc2nc(C)cc(C)n2)cc1)C1=CCOC1=O (stereo not given in full); 97.2% (inactive)
Cc1ccc2c(c1)n([O-])c1cc(Cl)ccc1[n+]2=O; 115% (inactive)
C=C1C(=O)O[C@H]2[C@H]1CC/C(Cn1cc(Cc3c[nH]c4ccccc34)nn1)=C\CC[C@@]1(C)O[C@@H]21; 85.1% (inactive)
COc1ccc(-c2cn3c(ccc4ccccc43)n2)cc1; 87.3% (inactive)
CCCCCCCCCCCCCC(=O)C(C)N (stereo not given); 53.5% (inactive)
CN1CCN(Cc2ccc(NC(=O)c3[nH]ncc3Nc3ncnc4c3CCC4)cc2)CC1; 16.5% (inactive)
CC(C)(C)c1nn(-c2ccccc2)c2c1CC1(CN2Cc2ccc3c(c2)OCO3)C(=O)c2ccccc2C1=O; 107% (inactive)
O=c1c(/C=C/c2ccco2)nnc(SCCN2CCOCC2)n1/N=C/c1ccc([N+](=O)[O-])cc1; 113% (inactive)
CNc1nc(C)c(-c2nc(Nc3cccc(S(N)(=O)=O)c3)ncc2F)s1; 3.99% (active)
COc1ccc(-c2cnoc2-c2cc(OC)c3c(c2)OCCO3)cc1; 45% (inactive)
CNC(=S)N/N=C/CSC/C=N/NC(=S)NC; 106% (inactive)
O=c1c2cccc3c(NC4CCCCC4)ccc(c32)c2nc3ccccc3n12; 82.3% (inactive)
Cn1cc(-c2csc(-c3cn(C)c4ncccc34)n2)c2ccccc21; 45.1% (inactive)
CCCCN(CCCC)CCC(C)(O)c1cc2ccccc2c2ccccc12 (stereo not given); 73.5% (inactive)

====

Test system: OVCAR-5 ovarian
assay_comment: NCI-60 one-dose screen, 48 h (100 = growth as untreated, 0 = no growth, -100 = all killed)
condition: 10 µM unless noted
This is part of a sample that, as a whole, favours compounds with a hit. Of some 83,000 tested, about 20% had one in any assay.
Listed next: entries and their corresponding growth.
reported_endpoint: growth (%)

COc1cc(-c2cnc3nonc3n2)c(OC)c2c1OCO2; 124
CN(C)CCOc1ccc(-c2nc3ccc(-c4nc5ccc(N6CCN(C)CC6)cc5[nH]4)cc3[nH]2)cc1; 83
CC/C=C\C[C@H](O)C/C=C1/C(=O)C=C[C@@H]1C/C=C\CCCC(=O)NC(C)C; 41.6
CC1(C)CC(C(=O)OCCCCCCCCCCC[P+](c2ccccc2)(c2ccccc2)c2ccccc2)C(C)(C)N1O (stereo not given); -62.9
CSc1ncnc2c1ncn2C1CCCO1 (stereo not given); 98.3

====

Tested on: CAKI-1 renal
assay_comment: NCI-60 one-dose screen, 48 h (100 = growth as untreated, 0 = no growth, -100 = all killed)
condition: 10 µM unless noted
About 83,000 compounds went through this panel and 20% of them were active in at least one assay; those are over-represented in the sample as a whole.
Define the label as y when growth is strictly less than 50% and as n in all remaining cases.

Clc1cccc(Nc2nc(Nc3cnc4ccccc4c3)c3[nH]cnc3n2)c1; n
COc1c2ccccc2c(OC)c2[nH]c(=O)ccc12; n
Cl/C(=N\Nc1ccccc1)c1ccccc1; n
OC(c1cc(-c2ccccc2)nc2ccc(Cl)cc12)C1CCCCN1 (centres undefined); y
O=C(/C=C/c1ccc(Cl)cc1)c1ccc(O)c(CN2CCN(c3cc4c(cc3F)c(=O)c(C(=O)O)cn4C3CC3)CC2)c1; y
O=c1[nH]c(-c2ccccn2)nc2sc3c(c12)CCCCC3; y
COc1cccc(-c2nc3sccn3c2-c2ccnc(NCCCNS(=O)(=O)c3ccccc3)c2)c1; y
CN1CCOCCOCCOc2ccccc2NC(=O)c2nc(cnc2N)-c2ccc(cc2)S1(=O)=O; n
